Values were extracted from the supplement of paper PMC11208160.

Assay: recombinant UMI read abundance after kanamycin selection (control-corrected) (log10(CPM+1)); higher = more efficient recombination; extreme values may be limits of the assay; sequences stand for … in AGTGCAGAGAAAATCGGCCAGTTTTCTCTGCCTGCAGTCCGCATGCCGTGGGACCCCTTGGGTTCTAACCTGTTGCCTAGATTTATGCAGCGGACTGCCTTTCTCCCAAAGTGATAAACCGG…AGGTTGGTTTCACT; site = the 11-nt donor;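 also: IS621 bridge recombinase in Escherichia coli cells against a fixed T5 target plasmid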
Outcome: true (1) for recombinant UMI read abundance (log10) of at least 0.01; false (0) for anything lower.

Use these answered entries as a reference point.
Q) # check: recombinant UMI read abundance (log10) of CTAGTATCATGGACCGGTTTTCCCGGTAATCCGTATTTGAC (site CTATGATCTGT) is greater than or equal to 0.01
A) false (0)

Q) # check: recombinant UMI read abundance (log10) of TTAGCGGCATGGACCGGTTTTCCCGGTAATCCGTATTTGCT (site TTTGCGGCTAG) is greater than or equal to 0.01
A) false (0)

Others:
Q) # check: recombinant UMI read abundance (log10) of CCGTATACATGGACCGGTTTTCCCGGTAATCCGTATTTGCT (site CCGTTTACTAG) is greater than or equal to 0.01
A) false (0)

Q) # check: recombinant UMI read abundance (log10) of CACTTGGCATGGACCGGTTTTCCCGGTAATCCGTATTTGTA (site CACTTGGCTTG) is greater than or equal to 0.01
A) true (1)

Q) # check: recombinant UMI read abundance (log10) of GAGCGCACATGGACCGGTTTTCCCGGTAATCCGTATTTGAT (site GAGCACACTAT) is greater than or equal to 0.01
A) true (1)

Q) # check: recombinant UMI read abundance (log10) of CCAGGTGCATGGACCGGTTTTCCCGGTAATCCGTATTTGGT (site CCAGGTGCTAA) is greater than or equal to 0.01
A) true (1)

Q) # check: recombinant UMI read abundance (log10) of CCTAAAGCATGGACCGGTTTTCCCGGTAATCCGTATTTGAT (site CCTAAAGCTAA) is greater than or equal to 0.01
A) false (0)
